B1: tRNA (parent)
chain: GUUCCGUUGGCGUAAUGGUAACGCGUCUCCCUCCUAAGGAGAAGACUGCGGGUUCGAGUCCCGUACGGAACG

# Variants of: B1
# ASSAY_COMMENT: yeast fitness relative to wild type (ratio to wild type); higher = fitter; tRNA-Arg(CCU), competitive growth, 37 C, YPD
Variants at the floor of the assay were thinned out.
ATTRIBUTE_MEASURED: yeast fitness
Field format: numeric only.

Examples with answers:
| VARIANT_IDENTIFIER | yeast fitness |
| --- | --- |
| C5A U13A U35A U59C A70U | 0.58 |
| U13G A21G | 0.895 |
| U3G C46U | 0.903 |
| U8C C29A A37G | 0.616 |

So, G6C C11U C31G A36G ? Its yeast fitness was 0.66

What the record says about G39U A70C : yeast fitness is 0.811

What the record says about A57U C66U : yeast fitness is 0.583

Entry G12A A45U ; yeast fitness = 1.03
